- Protocol Summary: in vivo
- Experimental Context: female, NMRI nude (nu/nu), mouse, total radioactivity, Uptake (%ID/g) tumor
Readout Label: tissue uptake at 25 min (%ID/g)
Dear colleague, please return just the value in %ID/g, with no unit written.

Task item: // returns reported tissue uptake at 25 min for input CC[C@H](C)[C@H](NC(=O)[C@@H](NC(=O)[C@@H]1CCCN1C(=O)[C@H](CCCNC(=N)N)NC(=O)[C@H](CCCNC(N)=NC(=O)NCCCCNC(=O)CN1CCN(CC(=O)O)CCN(CC(=O)O)CCN(CC(=O)O)CC1)NC)C(C)(C)c1ccc(O)cc1)C(=O)N[C@@H](CC(C)C)C(=O)O [[^68Ga]56, metal not drawn]
Reply: 7.3

====

- Protocol Summary: in vivo
- Experimental Context: female, NMRI nude (nu/nu), mouse, total radioactivity, Uptake (%ID/g) lung
Readout Label: tissue uptake at 0.75 h (%ID/g)
Dear colleague, please return just the value in %ID/g, with no unit written.

Task item: // returns reported tissue uptake at 0.75 h for input CC[C@H](C)[C@H](NC(=O)[C@@H](NC(=O)[C@@H]1CCCN1C(=O)[C@H](CCCNC(=N)N)NC(=O)[C@H](CCCNC(N)=NC(=O)NCCCCNC(=O)CN1CCN(CC(=O)O)CCN(CC(=O)O)CCN(CC(=O)O)CC1)NC)C(C)(C)c1ccc(O)cc1)C(=O)N[C@@H](CC(C)C)C(=O)O [[^68Ga]56, metal not drawn]
Reply: 1.2

====

- Protocol Summary: in vivo
- Experimental Context: female, NMRI nude (nu/nu), mouse, total radioactivity, Uptake (%ID/g) pancreas
Readout Label: tissue uptake at 0.75 h (%ID/g)
Dear colleague, please return just the value in %ID/g, with no unit written.

Task item: // returns reported tissue uptake at 0.75 h for input CC[C@H](C)[C@H](NC(=O)[C@@H](NC(=O)[C@@H]1CCCN1C(=O)[C@H](CCCNC(=N)N)NC(=O)[C@H](CCCNC(N)=NC(=O)NCCCCNC(=O)CN1CCN(CC(=O)O)CCN(CC(=O)O)CCN(CC(=O)O)CC1)NC)C(C)(C)c1ccc(O)cc1)C(=O)N[C@@H](CC(C)C)C(=O)O [[^68Ga]56, metal not drawn]
Reply: 0.9

====

- Protocol Summary: in vivo
- Experimental Context: female, NMRI nude (nu/nu), mouse, total radioactivity, Uptake (%ID/g) gall bladder (bile)
Readout Label: tissue uptake at 0.75 h (%ID/g)
Dear colleague, please return just the value in %ID/g, with no unit written.

Examples from the recorded data:
{"Molecule": "CN[C@@H](CCCNC(N)=NC(=O)NCCCCNC(=O)CN1CCN(CC(=O)O)CCN(CC(=O)O)CCN(CC(=O)O)CC1)C(=O)N[C@@H](CCCNC(=N)N)C(=O)N1CCC[C@H]1C(=O)N[C@@H](Cc1ccc(O)cc1)C(=O)N[C@H](C(=O)N[C@@H](CC(C)C)C(=O)O)C(C)(C)C [[^68Ga]21, metal not drawn]", "Recorded Number": 0.55}
{"Molecule": "CN[C@@H](CCCNC(N)=NC(=O)NCCOCCOCCNC(=O)[C@@H](Cc1ccc(-c2ccc(F)cc2)cc1)NC(=O)CCCCCNC(=O)CN1CCN(CC(=O)O)CCN(CC(=O)O)CCN(CC(=O)O)CC1)C(=O)N[C@@H](CCCNC(=N)N)C(=O)N1CCC[C@H]1C(=O)N[C@@H](Cc1ccc(O)cc1)C(=O)N[C@H](C(=O)N[C@@H](CC(C)C)C(=O)O)C(C)(C)C [[^68Ga]33, metal not drawn]", "Recorded Number": 2}

Now take the following molecule into account.
Task item: // returns reported tissue uptake at 0.75 h for input CN[C@@H](CCCNC(N)=NC(=O)NCCOCCOCCNC(=O)[C@@H](Cc1ccc(-c2ccc(F)cc2)cc1)NC(=O)CN1CCN(CC(=O)O)CCN(CC(=O)O)CCN(CC(=O)O)CC1)C(=O)N[C@@H](CCCNC(=N)N)C(=O)N1CCC[C@H]1C(=O)N[C@@H](Cc1ccc(O)cc1)C(=O)N[C@H](C(=O)N[C@@H](CC(C)C)C(=O)O)C(C)(C)C [[^68Ga]37, metal not drawn]
Reply: 1.9

====

Overview of reported Ki across a group of molecules:
- Tested On: hNTS2R (Homo sapiens)
- Sequence (O95665 whole entry): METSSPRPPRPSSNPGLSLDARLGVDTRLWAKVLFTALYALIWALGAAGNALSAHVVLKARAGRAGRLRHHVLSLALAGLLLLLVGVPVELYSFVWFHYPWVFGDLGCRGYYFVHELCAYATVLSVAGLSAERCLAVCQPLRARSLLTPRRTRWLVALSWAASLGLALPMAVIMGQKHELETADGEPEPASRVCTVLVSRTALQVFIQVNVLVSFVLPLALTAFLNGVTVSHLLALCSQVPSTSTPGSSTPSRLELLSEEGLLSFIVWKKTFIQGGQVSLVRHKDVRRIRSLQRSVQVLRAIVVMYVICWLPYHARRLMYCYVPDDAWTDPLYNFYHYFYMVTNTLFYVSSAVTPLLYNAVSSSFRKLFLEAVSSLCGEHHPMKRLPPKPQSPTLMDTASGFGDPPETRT
- Protocol Summary: radioligand competition binding with [3H]UR-MK300 at intact HEK293T-hNTS2R cells
- Experimental Context: [3H]UR-MK300 c = 10 nM, read-out: pKi ± SD NTS2R (converted)
Dear colleague, please return just the value in nM, with no unit written.

{"Smiles Record": "CN[C@@H](CCCNC(N)=NC(=O)NCCCCN)C(=O)N[C@@H](CCCNC(=N)N)C(=O)N1CCC[C@H]1C(=O)N[C@H](C(=O)N[C@H](C(=O)N[C@@H](CC(C)C)C(=O)O)C(C)(C)C)C(C)(C)c1ccc(O)cc1", "U": "nM", "Ki": 6.03}

Now take the following molecule into account.
Task item: // returns reported Ki for input CN[C@@H](CCCNC(N)=NC(=O)NCCCCNC(=O)CN1CCN(CC(=O)O)CCN(CC(=O)O)CCN(CC(=O)O)CC1)C(=O)N[C@@H](CCCNC(=N)N)C(=O)N1CCC[C@H]1C(=O)N[C@@H](Cc1ccc(O)cc1)C(=O)N[C@H](C(=O)N[C@@H](CC(C)C)C(=O)O)C(C)(C)C
Reply: 138

====

- Tested On: hNTS1R (Homo sapiens)
- Construct: intact HT-29 colon carcinoma cells expressing the hNTS1R; host or cells: HT-29 human colon carcinoma cells
- Sequence (P30989 whole entry): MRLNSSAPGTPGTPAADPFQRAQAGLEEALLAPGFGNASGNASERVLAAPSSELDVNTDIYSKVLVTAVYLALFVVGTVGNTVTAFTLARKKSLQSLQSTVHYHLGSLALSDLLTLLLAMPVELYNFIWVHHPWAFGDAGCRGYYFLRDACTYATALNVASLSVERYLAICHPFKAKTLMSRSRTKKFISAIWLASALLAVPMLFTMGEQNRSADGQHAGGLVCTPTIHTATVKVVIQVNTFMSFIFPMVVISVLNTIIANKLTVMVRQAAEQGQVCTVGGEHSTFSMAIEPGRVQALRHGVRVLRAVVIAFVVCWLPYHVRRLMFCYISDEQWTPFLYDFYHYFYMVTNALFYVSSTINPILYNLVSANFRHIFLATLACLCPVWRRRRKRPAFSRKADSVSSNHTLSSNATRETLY
- Protocol Summary: radioligand competition binding with [3H]UR-MK300 at intact HT-29 cells
- Experimental Context: [3H]UR-MK300 c = 1 nM, HT-29 cells, 23 °C; read-out: pKi ± SD NTS1R (converted)
Readout Label: Ki (nM)
Dear colleague, please return just the value in nM, with no unit written.

Examples from the recorded data:
{"Molecule": "CN[C@@H](CCCNC(=N)N)C(=O)N[C@@H](CCCNC(=N)N)C(=O)N1CCC[C@H]1C(=O)N[C@@H](Cc1ccc(O)cc1)C(=O)N[C@H](C(=O)N[C@@H](CC(C)C)C(=O)O)C1CCC1 [Compound 42]", "Ki (nM)": 1.05}
{"Molecule": "CN[C@@H](CCCNC(=N)N)C(=O)N[C@@H](CCCNC(=N)N)C(=O)N1CCC[C@H]1C(=O)N[C@@H](Cc1ccc(O)cc1)C(=O)N[C@H](C(=O)N[C@@H](CC(C)C)C(=O)O)C1CC1 [Compound 40]", "Ki (nM)": 8.91}

Now take the following molecule into account.
Task item: // returns reported Ki for input CN[C@@H](CCCNC(=N)NC(=O)NCCOCCOCCN)C(=O)N[C@@H](CCCNC(=N)N)C(=O)N1CCC[C@H]1C(=O)N[C@@H](Cc1ccc(O)cc1)C(=O)N[C@H](C(=O)N[C@@H](CC(C)C)C(=O)O)C(C)(C)C [Compound 12]
Reply: 2.45

====

- Protocol Summary: in vivo
- Experimental Context: female, NMRI nude (nu/nu), mouse, total radioactivity, Uptake (%ID/g) heart
Readout Label: tissue uptake at 25 min
Kindly report the value followed by its unit.

Task item: // returns reported tissue uptake at 25 min for input CC[C@H](C)[C@H](NC(=O)[C@@H](NC(=O)[C@@H]1CCCN1C(=O)[C@H](CCCNC(=N)N)NC(=O)[C@H](CCCNC(N)=NC(=O)NCCCCNC(=O)CN1CCN(CC(=O)O)CCN(CC(=O)O)CCN(CC(=O)O)CC1)NC)C(C)(C)c1ccc(O)cc1)C(=O)N[C@@H](CC(C)C)C(=O)O [[^68Ga]56, metal not drawn]
Reply: 1.3 %ID/g

====

- Protocol Summary: in vitro
- Assay type: in vitro ADME
- Experimental Context: human, 6 h, 100 µM, pH 7.4
Overview of reported % Intact Peptide in Plasma after 6 h across a group of compounds:
Dear colleague, please return just the value in %, with no unit written.

Examples from the recorded data:
{"Compound": "CC[C@H](C)[C@H](NC(=O)[C@H](Cc1ccc(O)cc1)NC(=O)[C@@H]1CCCN1C(=O)[C@H](CCCNC(=N)NC(=O)NCCCCNC(=O)CN1CCN(CC(=O)O)CCN(CC(=O)O)CCN(CC(=O)O)CC1)NC(=O)[C@H](CCCNC(=N)N)NC)C(=O)N[C@@H](CC(C)C)C(=O)O [Compound 20]", "% Intact Peptide in Plasma after 6 h (%)": 77}
{"Compound": "CC(C)C[C@H](NC(=O)[C@@H](NC(=O)[C@H](Cc1ccc(O)cc1)NC(=O)[C@@H]1CCCN1C(=O)[C@H](CCCNC(N)=NC(=O)NCCCCNC(=O)CN1CCN(CC(=O)O)CCN(CC(=O)O)CCN(CC(=O)O)CC1)N(C)C(=O)[C@@H](N)CCCNC(=N)N)C(C)(C)C)C(=O)O", "% Intact Peptide in Plasma after 6 h (%)": 87}
{"Compound": "CC[C@H](C)[C@H](NC(=O)[C@H](Cc1ccc(O)cc1)NC(=O)[C@@H]1CCCN1C(=O)[C@H](CCCNC(=N)NC(=O)NCCCCNC(=O)CN1CCN(CC(=O)O)CCN(CC(=O)O)CCN(CC(=O)O)CC1)NC(=O)[C@H](CCCNC(=N)N)NC)C(=O)N[C@@H](CC(C)C)C(=O)O [Compound 15]", "% Intact Peptide in Plasma after 6 h (%)": 8.3}

Now take the following compound into account.
Task item: // returns reported % Intact Peptide in Plasma after 6 h for input CN[C@@H](CCCNC(N)=NC(=O)NCCOCCOCCNC(=O)CN1CCN(CC(=O)O)CCN(CC(=O)O)CCN(CC(=O)O)CC1)C(=O)N[C@@H](CCCNC(=N)N)C(=O)N1CCC[C@H]1C(=O)N[C@@H](Cc1ccc(O)cc1)C(=O)N[C@H](C(=O)N[C@@H](CC(C)C)C(=O)O)C(C)(C)C
Reply: 98
